methodNotes: yeast display, Sf9 membrane polyspecificity reagent, FACS + sequencing; frameworks hold sequencing errors
valueType: polyreactivity (PSR sort gate)

[
  {
    "sequenceCode": "QVQLVESGGGLVQTGGSLRLICAASGRTFAVNDMGWYRQARGKERELVAAITWRGDSTYYADSVKGRFTISRDNAKNTVYLQMISLKPEDTAVYYCNAYYDGDWRYTSLETGEHWGQGTQVTVSS",
    "valueType": "polyreactivity (PSR sort gate)",
    "result": "low polyreactivity"
  },
  {
    "sequenceCode": "QVQLVESGGGLVQAGGILRLSCAASGRTFTPYALGWYRQAAGKERDLVAAISSRGGSTYYADSVKGRFTISRDYAKNTVDLQMNSLKPEDTAVYYCNATQYPAADRYTNNYGGGFDYWGQGTQVTVSS",
    "valueType": "polyreactivity (PSR sort gate)",
    "result": "low polyreactivity"
  },
  {
    "sequenceCode": "QVQLVESGGGLVQAGGTLRLSCAATGITFDAYVMGWYRQAPGKERELVAGIYSGGSTYYADSVKGRFTISRDNAKNTVYLQMNSLKPEDTAVYYWARENYRFADEPPVSRQIPYDYWGQGTQVTVSS",
    "valueType": "polyreactivity (PSR sort gate)",
    "result": "low polyreactivity"
  }
]

====

methodNotes: yeast display, Sf9 membrane polyspecificity reagent, FACS + sequencing; frameworks hold sequencing errors
valueType: polyreactivity (PSR sort gate)

[
  {
    "sequenceCode": "QVQLVESGGSLVQAGGSLRLSCAASGRIFITNAMGAYRQAPGKERELVAAIRRRGGNTYYADSVKGRFTISRDNAKNTVYLQMNSLKPEDTAVYYCAVYPRPYKYNYWGQGTQVTVSS",
    "result": "high polyreactivity"
  },
  {
    "sequenceCode": "QVQLVESGGGLVQAGGSLRLSCAASGYTFWRYAMGWYRQAPGKERELVAAISASGGSTYYADSVKGRFTISRDNAKNTVYLQMNSLKPEDTAVYYCNAVSAYSYYVNYDYWGQGTQVTVSS",
    "result": "high polyreactivity"
  },
  {
    "sequenceCode": "QVPLVESGGGLVQAGGSLRLSCAASGSTQNRYAMGWYRQAPGKEREFVAAITWRGGSTYADSVKGRFTISRDNAKTTVYLQMYSLKPEDTAVYYCAAQGYKQRVHYDYWGQGNQVTVSS",
    "result": "high polyreactivity"
  }
]

====

methodNotes: yeast display, Sf9 membrane polyspecificity reagent, FACS + sequencing; frameworks hold sequencing errors
valueType: polyreactivity (PSR sort gate)

[
  {
    "sequenceCode": "QVQLVESGGGLVQAGGSLRLSCAASGRIFRYNAMGWYRQAPGKERELVAAISTSGTRTFYADSVKGRFTISRDNAKNTVYLQMNSLKPEDTAVYYCNKVAGPGKLGTYYYWGQGTQVTVSS",
    "result": "high polyreactivity"
  },
  {
    "sequenceCode": "QVQLVESGGGLVQAGGSLRLSCAASGRTFYFYPMGWYRQAPGKERELVAAIRSSGGSTNYADSVKGRFTISRDNAKNTVYLQMNSLKPEDTAVYYFAAKRRAKGNYAFYYWGQGTQVTVSS",
    "result": "high polyreactivity"
  },
  {
    "sequenceCode": "QVQHVESGGGLVQAGGSLRLSCAASGRTFRRYAMGWYRQAPGKERELVAVITTGSTYYADSVKGRFTISRDNAKNTVYLQMNSLKPEDTALYYCAADFYRATARYEMDYWGQGTQVTVSS",
    "result": "high polyreactivity"
  }
]

Data provenance is the nanobody polyreactivity screen of Harvey et al. (2022).
